Target: T1, recombinant Motavizumab human IgE (rMota-hIgE) (human, UniProt P01854 1-428)
T1 construct: also called Recombinant IgE (argenx)
T1 sequence (P01854 other isoform, or with tags, fused parts or gaps limits assumed, form in doubt): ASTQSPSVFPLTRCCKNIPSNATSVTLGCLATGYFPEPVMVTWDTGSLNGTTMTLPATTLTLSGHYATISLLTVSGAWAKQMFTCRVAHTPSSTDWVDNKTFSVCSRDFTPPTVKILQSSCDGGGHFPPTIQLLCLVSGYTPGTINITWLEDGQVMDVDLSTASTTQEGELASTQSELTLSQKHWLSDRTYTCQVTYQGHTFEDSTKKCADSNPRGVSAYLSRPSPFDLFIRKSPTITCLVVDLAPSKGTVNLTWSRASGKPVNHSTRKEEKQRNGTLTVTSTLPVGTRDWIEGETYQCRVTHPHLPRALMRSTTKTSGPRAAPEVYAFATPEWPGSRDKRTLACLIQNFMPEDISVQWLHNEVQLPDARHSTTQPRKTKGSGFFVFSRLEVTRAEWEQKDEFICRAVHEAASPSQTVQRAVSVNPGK
Test: hIgE binding ELISA, pH 5.5
Field: class. Source value: EC50. Ranges: lowest: < 0.02 µg/mL; middle: ≥ 0.02 µg/mL and < 0.03 µg/mL; highest: ≥ 0.03 µg/mL

The examples below pair each entry with its known result.
| binder | qualitative-label |
| --- | --- |
| OmaVH15G55H - VL3 (antibody, V domains shown) VH: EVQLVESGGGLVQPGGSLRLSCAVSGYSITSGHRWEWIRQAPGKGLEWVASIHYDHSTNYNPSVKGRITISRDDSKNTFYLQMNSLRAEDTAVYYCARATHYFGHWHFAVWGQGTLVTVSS VL: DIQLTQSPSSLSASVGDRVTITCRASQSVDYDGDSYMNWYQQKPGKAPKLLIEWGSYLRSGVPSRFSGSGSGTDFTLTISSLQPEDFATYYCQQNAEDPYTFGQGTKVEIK | middle |
| OmaVH15G55HW100b - VL3D28H (antibody, V domains shown, also called OmaVH15G55HW100b VL3D25H) VH: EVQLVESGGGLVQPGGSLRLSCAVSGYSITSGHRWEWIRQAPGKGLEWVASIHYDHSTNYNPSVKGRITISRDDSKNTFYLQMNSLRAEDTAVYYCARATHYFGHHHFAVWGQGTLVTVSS VL: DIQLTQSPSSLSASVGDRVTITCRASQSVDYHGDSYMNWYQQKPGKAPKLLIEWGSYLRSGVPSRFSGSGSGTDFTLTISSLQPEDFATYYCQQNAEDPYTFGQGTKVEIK | highest |

Inquiry: Bin? OmaVH15G55H - VL3D28HS31H (antibody, V domains shown) VH: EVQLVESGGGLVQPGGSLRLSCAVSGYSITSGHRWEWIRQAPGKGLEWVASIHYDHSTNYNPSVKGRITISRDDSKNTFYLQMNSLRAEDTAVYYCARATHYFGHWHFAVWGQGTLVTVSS VL: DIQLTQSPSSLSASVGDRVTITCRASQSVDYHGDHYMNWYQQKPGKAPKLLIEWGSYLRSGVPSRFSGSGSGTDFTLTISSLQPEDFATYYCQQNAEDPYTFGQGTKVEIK
Reply text: middle

Inquiry: Bin? OMA VH15 - VL3D28HS31H (antibody, V domains shown) VH: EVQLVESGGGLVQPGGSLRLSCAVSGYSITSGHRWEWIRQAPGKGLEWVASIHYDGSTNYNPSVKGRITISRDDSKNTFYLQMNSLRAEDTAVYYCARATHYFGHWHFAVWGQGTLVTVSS VL: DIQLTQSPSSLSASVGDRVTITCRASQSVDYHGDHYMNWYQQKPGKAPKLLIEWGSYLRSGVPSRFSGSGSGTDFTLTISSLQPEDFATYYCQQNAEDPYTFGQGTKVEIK
Reply text: lowest

Inquiry: Bin? CL-2C mAb 37 (antibody, V domains shown, also called VKWT + VH33H100CH) VH: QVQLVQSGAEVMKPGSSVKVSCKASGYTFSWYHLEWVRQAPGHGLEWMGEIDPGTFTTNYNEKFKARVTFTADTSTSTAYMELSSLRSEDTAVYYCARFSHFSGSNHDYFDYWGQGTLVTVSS VL: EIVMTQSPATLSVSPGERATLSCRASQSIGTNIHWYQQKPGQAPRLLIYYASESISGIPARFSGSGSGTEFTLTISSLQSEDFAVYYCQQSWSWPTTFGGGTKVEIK
Reply text: highest

Origin of values: patent US20220177604A1
